- Tested on: RPMI-8226 leukemia
- experiment notes: NCI-60 one-dose screen, 48 h
- condition label: 10 µM unless noted
- Protocol: Growth inhibition of the RPMI-8226 human tumor cell line is measured as a screen for anti-cancer activity. Cells are grown in 96 well plates and exposed to the test compound for 48 hours. Compounds are tested at a single concentration, which is 10^-5 M for most compounds. The reported endpoint is percent growth (GI% or GIPRCNT), where numbers from 0 - 100% represent growth inhibition, and numbers from -100% - 0 represent cell death. For example, a value of 40 represents 60% growth inhibition. […]
Compounds without any hit were thinned out: in the full panel of roughly 83,000, 20% have a hit. Calls of active or inactive are those of the source. How the source made its calls: active means growth percent below 10; inactive means the rest.
Outcome codes: yes = active, no = inactive

| molecule | category |
| --- | --- |
| CCN1C(=O)N(CC)C2C1NC(=S)N2/N=C/c1ccc(OC)cc1 (stereo not drawn) | no |
| O=C1/C(=C\c2cccc3nccnc23)SC(=S)N1CCc1ccc(O)cc1 | no |
| Cc1cccc(N2CCC(=O)NC2=S)c1 | no |
| CCN(CC)CCN1C(=O)c2cccc3c(/C=C/CN4C(=O)c5cccc6cccc(c56)C4=O)ccc(c23)C1=O | no |
| CCN(CC)CCCOc1ccc2ncnc(Nc3ccc(Oc4cccc(C(F)(F)F)c4)c(Cl)c3)c2c1 | yes |
| Cc1ccc2c(-c3nnc(N)s3)cc(=O)oc2c1C | no |
| COc1cc(/C=C/C(=O)c2ccc(-n3cc(CN4CCN(c5cc6c(cc5F)c(=O)c(C(=O)O)cn6C5CC5)CC4)nn3)cc2)ccc1O | yes |
| O=c1c2ccccc2c(=O)c2c1sc1c(=O)c3ccc(O)cc3c(=O)c12 | yes |
| C=C1C(=O)O[C@H]2[C@H]1CC/C(CNC(=O)c1c[nH]c3ccc(F)cc13)=C\CC[C@@]1(C)O[C@@H]21 | yes |
| CNCc1cccc2c1OCCOCCOCCNS(=O)(=O)c1ccc(cc1)-c1cnc(N)c(n1)C(=O)N2 | no |
| CNC(C)[C@H]1CCC2C3CC=C4C(=O)[C@@H](NC(=O)C=C(C)C)CC[C@]4(C)C3CC[C@@]21C (stereo partly drawn) | yes |
| Cc1ccc2nc(NC(=O)CSc3nc(-c4ccccc4)c(C#N)c4nnnn34)sc2c1 | no |
| NNCCc1ccc(NC(=O)CCCc2ccc(C(=O)Nc3ccccc3N)cc2)cc1 | no |
| O=[N+]([O-])c1cc(NS(=O)(=O)c2ccccc2)ccc1NS(=O)(=O)c1ccccc1 | no |
| COc1cnc2c(c1)C(=O)c1c-2n(CCCCl)c(=O)c2ccncc12 | no |
| C=C(C)[C@@H]1CCC[C@]2(C(=O)N3CCN(C)CC3)CC[C@]3(C)[C@@H](CC[C@@H]4[C@@]5(C)CC/C(=N\NC(=O)c6ccncc6)C(C)(C)[C@@H]5CC[C@]43C)[C@@H]12 | no |
| CCCn1cnc2c(c1=N)C(c1ccc(F)cc1)c1sc3c(F)cccc3c1O2 (stereo not drawn) | no |
| O=C(Oc1ccc(CCl)cc1)c1ccccc1 | yes |
| COc1ccc(Oc2nc(Nc3ccc(N4CCOCC4)cc3)ncc2NC(=O)Nc2cc(OC)cc(OC)c2)cc1 | no |
| COc1ccc(-c2ccc(-c3ccc(C(=N)N)nc3)s2)cc1Cl | yes |
| CCNC(=O)Oc1ccc(/C(=C(/C)Cc2ccc(OC)cc2)c2ccc(OCCN3CCCCC3)cc2)cc1 | no |
| Cc1ccc(-c2nc(-c3cn(C)c4ncccc34)cs2)cc1 | yes |
| CCOC(=O)c1nn(CC(O)c2ccccc2)c(NC(=O)Nc2cccc(F)c2)c1C (stereo not drawn) | no |
| Nc1nc(N)c2c(n1)NC(c1cccc(Nc3ccnc4cc(C(F)(F)F)ccc34)c1)CC(c1ccc(Br)cc1)=N2 (stereo not drawn) | yes |
| CCOC(=O)c1c(C)nc2c(c1N)CC(=O)N2Cc1ccc(OC)cc1 | no |
| COc1ccc(/C=C2\CN(C(=O)C(Cl)Cl)C/C(=C\c3ccc(OC)cc3)C2=O)cc1 | yes |
| O=C(O)/C=C/C(=O)Nc1cccc(Cn2nnc3cc(Cl)c(Cl)cc32)c1 | no |
| Cc1nc2ccccc2c(/C=C/c2ccccc2)c1C(=O)/C=C/c1ccccc1 | yes |
| O=C1/C(=C2\SC(=S)N(C3CC3)C2=O)SC(=S)N1C1CC1 | no |
| CC[C@]12C=CCN3CC[C@@]4(c5ccc(OC)cc5N(C)[C@H]4[C@@](O)(C(=O)OC)[C@@H]1OC(=O)CCC[P+](c1ccccc1)(c1ccccc1)c1ccccc1)[C@@H]32 | yes |
| O=C(Nc1ccc(Cl)cc1)Oc1c(Cl)c(Cl)c(Cl)c(Cl)c1Cl | no |
| COc1cc(Cl)c(C)cc1NC(=O)c1cc2ccccc2cc1O | yes |
| COc1cc(/C=C2\CN(S(=O)(=O)c3ccccc3)C/C(=C\c3cc(CN4CCCCC4)c(O)c(OC)c3)C2=O)cc(CN2CCCCC2)c1O | yes |
| O=C(C1=Cc2cc3ccccc3n2Cc2cnnn21)c1ccc(O)cc1 | no |
| C[n+]1ccc(CCc2c[nH]c3ccccc23)cc1 | no |
| CN1CCN(CCOc2ccc(-c3cnc4c(-c5cccc(F)c5F)cnn4c3)cc2)CC1 | yes |
| Nc1nc(NC(=O)Nc2ccc(C(=O)O)cc2)nn1-c1ccc(S(N)(=O)=O)cc1 | no |
| Ic1ccccc1I | no |
